Where do the numbers come from? From PubChem BioAssay (NCI).

- System: HCC-2998 colon
- assay_overview: NCI tumour cell line growth inhibition, 48 h
value_kind: TGI

Here is how some compounds turned out for TGI.
[
  {
    "smiles_structure": "Nc1ccc2c(c1)[O][Sn]([c]1ccccc1)([c]1ccccc1)[O]C2=O",
    "TGI": "33.2 µM"
  },
  {
    "smiles_structure": "O=C(N=Nc1c(O)[nH]c2ccccc12)c1ccccc1O",
    "TGI": "> 100 µM"
  }
]

compound `C=C(Br)CN(C#N)CC(=C)Br` , TGI observed: > 100 µM

====

- Test system: UACC-62 melanoma
- assay_overview: NCI tumour cell line growth inhibition, 48 h
Recorded TGI values for a group of molecules are listed next.

Here is how some molecules turned out for TGI.
[
  {
    "molecule": "Nc1nc(N)c2ncn(CC(CO)CC(c3ccccc3)P(=O)(O)O)c2n1 (stereo unspecified)",
    "TGI": "> 100 µM"
  },
  {
    "molecule": "O=C1CC(c2cccc(Cl)c2)n2cccc21 (stereo unspecified)",
    "TGI": "> 100 µM"
  },
  {
    "molecule": "c1ccc2c(NCCCCCCCCNc3c4ccccc4nc4ccccc34)c3ccccc3nc2c1",
    "TGI": "2.19 µM"
  }
]

molecule CCCCCC(C)C[C@H]1CO[C@H](c2ccc[nH]2)N[C@H]1C(=O)OC (stereo partly specified) , TGI observed: > 100 µM

molecule `CCCCc1cc(O)ccc1O` , TGI observed: > 100 µM

molecule `CN(C)CCOc1ccc(-c2c(Oc3ccc(Cl)cc3)c(=O)oc3ccccc23)cc1` , TGI observed: 32.1 µM

====

- System: SK-MEL-2 melanoma
- assay_overview: NCI tumour cell line growth inhibition, 48 h
value_kind: TGI

Here is how some compounds turned out for TGI.
[
  {
    "compound": "CCOC(=O)C(=O)Nc1c(C)cccc1CC",
    "TGI": "> 100 µM"
  },
  {
    "compound": "CC(C)(C)C([O-])=C1C(=O)c2ccccc2C1=O.CC(C)(C)C([O-])=C1C(=O)c2ccccc2C1=O.CC[O-].CC[O-].[Ti+4]",
    "TGI": "85.2 µM"
  },
  {
    "compound": "CN(C)CCNC(=O)c1cccc(CO)c1[N+](=O)[O-]",
    "TGI": "> 100 µM"
  },
  {
    "compound": "CC1(C)N=C(N)N=C(N)N1c1cccc(CSc2ccccc2)c1",
    "TGI": "> 100 µM"
  },
  {
    "compound": "Cc1ccc(-n2c(C)nc3c2C(=O)c2ccccc2C3=O)cc1",
    "TGI": "> 100 µM"
  }
]

compound `Brc1ccc2c(c1)C1=C(CO2)Cc2ccccc2O1` , TGI observed: 34.3 µM

compound COC1CCC(OC2CC(C3(C)CCC4(CC(O)C(C)C(C(C)/C=C(\C)C(=O)C(C)CC(C)C(=O)O)O4)O3)OC3(OC(C4OC(O)(CO)C(C)CC4C)CC3C)C2C)OC1C (centres undefined) , TGI observed: 0.576 µM

compound `O=C1/C(=C\c2cccs2)Oc2ccccc21` , TGI observed: > 100 µM

compound COc1cccc(/C=C/C2=NN(c3cccc(S(=O)(=O)O)c3)C3(C2)SCC(=O)N3c2nc3ccccc3s2)c1 (centres undefined) , TGI observed: > 100 µM

compound `COC(=O)c1c(O)ccc2c1c1c(n2C)C(=O)c2ccccc2C1=O` , TGI observed: > 100 µM

compound `O=C1NC(=O)C(c2ccccc2Cl)=C1Nc1cccc(O)c1` , TGI observed: > 25 µM

compound CC1(C)C2CCC1C(=O)C(C=O)C2 (centres undefined) , TGI observed: > 100 µM

compound O=C(CCCC(=O)N1CC(CCl)c2ccc([N+](=O)[O-])cc21)N1CC(CCl)c2ccc([N+](=O)[O-])cc21 (centres undefined) , TGI observed: > 100 µM

compound `COC(=O)c1ccc2c(c1)c1c(C)c3cnccc3c(C)c1n2C` , TGI observed: 0.471 µM

compound `O=C(/C=C/c1ccc([N+](=O)[O-])o1)NNC(=O)c1cc2ccccc2cc1O` , TGI observed: 3.97 µM

compound `O=C(O)C(Cc1cccs1)C(=O)O` , TGI observed: > 100 µM

compound `c1ccc(COc2ccc3[nH]c4c(ncc5[nH]c6ccccc6c54)c3c2)cc1` , TGI observed: 30.8 µM

compound `CCN(CC)C(=S)SSC1CCCCC1` , TGI observed: 61.2 µM

compound `CCOC(=O)c1c2ccc(/C=C/C(=O)OC)ccc-2c(C(=O)OCC)c1N` , TGI observed: > 100 µM

compound `COc1ccc(/C=[N+](\[O-])[C@H](COCc2ccccc2)c2ccccc2)cc1` , TGI observed: > 100 µM

compound `CC1=Nn2c(nc3sc4c(c3c2=O)CCCC4)SC1` , TGI observed: > 100 µM

compound `Cc1nc2c(Br)cc(Br)cc2c(=O)n1-c1ccccc1N` , TGI observed: 58.1 µM

compound `CC1(C)C(=O)/C(=C\c2ccco2)C[C@]2(C)[C@H]3CC=C4[C@@H]5C[C@](C)(C(=O)O)CC[C@]5(C)CC[C@@]4(C)[C@]3(C)CC[C@@H]12` , TGI observed: 36.8 µM

compound C=C1C(O)C2C(=C(CC(C)C)C13CC3)C(=O)C(C)(C)C2OC (centres undefined) , TGI observed: > 100 µM

compound CC1(C)CCOC(=O)C(Cl)CC1Cl (centres undefined) , TGI observed: > 100 µM
